All figures here come from ChEMBL document CHEMBL5316264.

- METHOD SUMMARY: AUC (0 to t) in BALB/c nude mouse at 10 mg/kg, po measured after 24 hrs by LC-MS/MS analysis
- Format: ADME, organism-based
- Design: time 24 hrs, dose 10 mg/kg, route po
- CONDITION: in vivo
PROPERTY NAME: AUC(0-t) at 24 h (ng·h/mL)

CCCOC(=O)[C@@H]1Cc2cc(O)c(O)cc2[C@H](Cc2ccc(O)c(O)c2)N1C(=O)c1ccccc1Cl ... 164

====

- METHOD SUMMARY: Solubility of the compound in FeSSIF
- Assay type: physicochemical
PROPERTY NAME: solubility (µM)

CCCOC(=O)[C@@H]1Cc2cc(O)c(O)cc2[C@H](Cc2ccc(O)c(O)c2)N1C(=O)c1ccccc1Cl ... 75.3

====

- Test system: Influenza A virus
- METHOD SUMMARY: Antiviral activity against influenza A virus H5N1(A/Duck/Guangdong/212/2004) infected in MDCK cells assessed as inhibition of cytopathic effect incubated for 48 hrs by MTT assay
- Assay type: functional, organism-based
pEC50: −log10 of the molar value.
Form field: pEC50 (one value per entry).
PROPERTY NAME: pEC50

CCCOC(=O)[C@@H]1Cc2cc(O)c(O)cc2[C@H](Cc2ccc(O)c(O)c2)N1C(=O)c1ccccc1Cl ... 5.95
CCC(CC)[C@H](NC(C)=O)[C@@H]1[C@H](O)[C@@H](C(=O)O)C[C@H]1NC(=N)N [PERAMIVIR ANHYDROUS] ... 5.97
COC(=O)[C@@H]1Cc2cc(O)c(O)cc2[C@H](Cc2ccc(O)c(O)c2)N1C(=O)c1ccccc1Cl ... 5.63
O=C(Nc1ccncc1)[C@@H]1Cc2cc(O)c(O)cc2[C@H](Cc2ccc(O)c(O)c2)N1C(=O)c1ccccc1Cl ... 5.55

====

- METHOD SUMMARY: Cytotoxicity against MDCK cells incubated for 48 hrs by MTT assay
- Assay type: toxicity, cell-based, Canis lupus familiaris
- CONDITION: dog
Each record here notes measured CC50 at 48 h.
PROPERTY NAME: CC50 at 48 h

COC(=O)[C@@H]1Cc2cc(O)c(O)cc2[C@H](Cc2ccc(O)c(O)c2)N1C(=O)c1ccc(C(F)(F)F)cc1 ... > 101 µM
COC(=O)[C@@H]1Cc2cc(O)c(O)cc2[C@H](Cc2ccc(O)c(O)c2)N1C(=O)c1cccc([N+](=O)[O-])c1 ... > 101 µM
O=C(O)[C@@H]1Cc2cc(O)c(O)cc2[C@H](Cc2ccc(O)c(O)c2)N1C(=O)c1ccccc1Cl ... 103 µM
COC(=O)[C@@H]1Cc2cc(O)c(O)cc2[C@H](Cc2ccc(O)c(O)c2)N1C(=O)c1ccccc1C(F)(F)F ... > 101 µM
COC(=O)[C@@H]1Cc2cc(O)c(O)cc2[C@H](Cc2ccc(O)c(O)c2)N1C(=O)c1ccccc1[N+](=O)[O-] ... > 101 µM
COC(=O)[C@@H]1Cc2cc(O)c(O)cc2[C@H](Cc2ccc(O)c(O)c2)N1C(=O)c1ccccc1F ... 82.3 µM
COC(=O)[C@@H]1Cc2cc(O)c(O)cc2[C@H](Cc2ccc(O)c(O)c2)N1C(=O)c1ccccc1Br ... > 101 µM
O=C(Nc1ccccc1)[C@@H]1Cc2cc(O)c(O)cc2[C@H](Cc2ccc(O)c(O)c2)N1C(=O)c1ccccc1Cl ... 169 µM
